# System: CAKI-1
# assay_protocol: NCI tumour cell line growth inhibition, 48 h
The source made the active and inactive calls. Cut-off read from the data, not from the text of the source: active = GI50 up to about 1.1 µM and inactive = higher.
The reply should name one outcome from T for active, F for inactive

Solved cases below.
molecule	label
NCCCNCCS	F
O=C1C(=O)C2(CC1S(=O)(=O)c1ccccc1)c1ccccc1-c1ccccc12 (stereo unspecified)	F
O=C(/C=C/c1ccccc1)Oc1cccc(O)c1	F
Cc1cccc(NC(=S)N/N=C2\C(=O)Nc3ccccc32)c1	F
COc1ccc(NC(=O)C(C#N)=C(SC)SC)cc1	F

Short answer needed: outcome of this test for C=C1C2CC[C@@](C)(O)C2[C@H]2OC(=O)C(=C)[C@@H]2C[C@H]1O (stereo partly specified) ? F

What call does the record list for C[As](C)SCC(NC(=O)CCC(N)C(=O)O)C(=O)NCC(=O)O.c1ccncc1 (stereo unspecified) ? T

What did this assay record as the result for CCCNC(=O)C(C)C1CCC2(C)C=CC(=O)C(C)=C2C1O (stereo unspecified) ? F

What did this assay record as the result for CN(C)CCCN1C(=O)N(CCCN(C)C)c2c3cc(O)ccc3nc3c([N+](=O)[O-])ccc1c23 ? F

Assay result, entry COc1ccc2c(c1)O[C@H]1c3ccc(O)cc3OC[C@@H]21 — outcome? F

// param item: CCC1(CC)C(=O)N(C(=O)c2ccc(Cl)cc2)N(C(=O)c2ccccc2Cl)C1=O ; yields the recorded call F
